- target_desc: PTPN3, P26045
- Sequence (P26045 505-587): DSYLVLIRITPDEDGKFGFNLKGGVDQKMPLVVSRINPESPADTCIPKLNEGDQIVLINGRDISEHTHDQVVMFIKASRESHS
- protocol_details: holdup assay
- Design: key: below the threshold = too weak to quantify, mostly under pKd 3.1 to 4
- experimental_conditions: plain residues with an end cap or a label only (N-terminal biotin on a linker: ahx)
readout_type: pKd
One number for each entry.

// worked examples, pKd included
VNENQKEYFF [CNTNAP4, Q9C0A0] :: 4.55
PKMKLNETSF [SHKBP1, Q8TBC3] :: 4.68
ADENEQVSAV [RAPGEF6, Q8TEU7] :: 4.3
HSATSVHTSV [MTMR1, Q13613] :: 4.16
YNSFLSVTTV [PDZRN3, Q9UPQ7] :: 3.48

Here's the next entry for you.
What value of measured pKd is listed for KDECVIATEV [DLL1, O00548] ?
4.2
